biological target: binding partner of C5A (XPA23); assay: Biacore K-off
readout-kind: fold difference in affinity vs original
Quick note: unit goes after the number.

>  <binder>
C5A (XPA23) VL S93Q (antibody, V domains shown) VH: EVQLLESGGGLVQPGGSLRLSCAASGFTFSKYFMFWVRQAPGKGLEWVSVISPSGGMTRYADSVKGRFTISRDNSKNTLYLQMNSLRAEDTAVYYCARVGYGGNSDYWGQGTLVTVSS VL: DIQMTQSPSSVSASVGDRLTIICRASQDINRWLAWYQQTPGNAPKLLIHSATSLQSGVPSRFSGSGSGTDFTLTINSLQPEDFATYYCQQADQFPLTFGGGTKVEIK

>  <result>
1.54 fold

$$$$

Kindly consider the entry below.
Q: Name the reported fold difference in affinity vs original value associated with the binder C5A (XPA23) VL R31G (antibody, V domains shown) VH: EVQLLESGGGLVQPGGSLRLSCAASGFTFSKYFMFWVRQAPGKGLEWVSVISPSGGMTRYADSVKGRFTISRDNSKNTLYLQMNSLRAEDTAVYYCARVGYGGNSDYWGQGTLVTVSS VL: DIQMTQSPSSVSASVGDRLTIICRASQDINGWLAWYQQTPGNAPKLLIHSATSLQSGVPSRFSGSGSGTDFTLTINSLQPEDFATYYCQQADSFPLTFGGGTKVEIK
Result: 0.92 fold
